System: HT-29
assay_procedure: Cytotoxicity against human HT-29 cells assessed as growth inhibition after 72 hrs by SRB assay
Type: functional, cell-based
details: HT-29, 72 h
assay_endpoint: IC50
The reply must contain the numeric value and, after it, the unit.

compound: CCc1c2c(nc3ccc(B(O)O)cc13)-c1cc3c(c(=O)n1C2)COC(=O)[C@]3(O)CC
tested_system: HT-29
IC50: 47 nM

// next item, IC50 requested
In: Using the record for CCc1c2c(nc3ccc(O)cc13)-c1cc3c(c(=O)n1C2)COC(=O)[C@]3(O)CC [7-ETHYL-10-HYDROXYCAMPTOTHECIN] , report its IC50.
Out: 54 nM
